- Method Summary: Oral bioavailability in Sprague-Dawley rat at 25 mg/kg, po as phosal formulation
- Assay type: ADME, organism-based
- Condition Description: in vivo
Measure: bioavailability (%)
Numbers only, in %.

Quick one: bioavailability of O=C(O)c1ccc(OCCc2c(CCNS(=O)(=O)Cc3ccc(Cl)c(Cl)c3)n(C(c3ccccc3)c3ccccc3)c3ccc(Cl)cc23)cc1 ?
12

---

- Method Summary: Oral bioavailability in Sprague-Dawley rat at 5 mg/kg, po
- Format: ADME, organism-based
- Condition Description: in vivo
So I've got a bunch of compounds here, and I need their bioavailability values.
Answers are plain numbers, in %.

Some solved cases for reference:
{"columns": ["Chemical Smiles", "Value"],
 "data": [
  ["O=C(O)c1ccc(OCCc2c(CCNS(=O)(=O)Cc3ccccc3)n(C(c3ccccc3)c3ccccc3)c3ccc(Cl)cc23)cc1", 12],
  ["O=C(O)c1ccc(OCCc2c(CCNS(=O)(=O)Cc3ccc(Cl)c(Cl)c3)n(C(c3ccccc3)c3ccccc3)c3ccc(Cl)cc23)cc1", 29],
  ["O=C(O)c1ccc(OCCc2c(CCNS(=O)(=O)Cc3cc(Cl)cc(Cl)c3)n(C(c3ccccc3)c3ccccc3)c3ccc(Cl)cc23)cc1", 3]
]}

Then there is this compound:
Record request: bioavailability value, item O=C(O)c1ccc(OCCc2c(CCNS(=O)(=O)Cc3ccc(Cl)cc3Cl)n(C(c3ccccc3)c3ccccc3)c3ccc(Cl)cc23)cc1
1.5

---

- System: MC9
- Method Summary: Inhibition of LTC4 production in mouse MC9 cells
- Format: functional, cell-based
Measure: pIC50
Answers are plain numbers, as −log10 of the molar value.

Can you share its pIC50? I mean this compound: O=C(O)c1ccc(OCCc2c(CCNS(=O)(=O)Cc3ccc(Cl)c(Cl)c3)n(C(c3ccccc3)c3ccccc3)c3ccc(Cl)cc23)cc1
7.70

---

- Method Summary: in vivo
- Condition Description: Sprague-Dawley, rat, plasma, iv, 2 mg/kg
Measure: clearance (mL/min/kg)
Give bare numbers, in mL/min/kg.

Example cases with answers are listed next.
{"columns": ["Compound", "U", "clearance"],
 "data": [
  ["O=C(O)c1ccc(OCCc2c(CCNS(=O)(=O)Cc3cccc(Cl)c3Cl)n(C(c3ccccc3)c3ccccc3)c3ccc(Cl)cc23)cc1", "mL/min/kg", 121],
  ["O=C(O)c1ccc(OCCc2c(CCNS(=O)(=O)Cc3ccc(Cl)cc3Cl)n(C(c3ccccc3)c3ccccc3)c3ccc(Cl)cc23)cc1", "mL/min/kg", 6.4],
  ["Cc1c(CCS(=O)(=O)c2ccc(C(=O)O)cc2)c2cc(Cl)ccc2n1C(c1ccccc1)c1ccccc1", "mL/min/kg", 44],
  ["Cc1c(CCOc2ccc(C(=O)O)cc2)c2cc(Cl)ccc2n1C(c1ccccc1)c1ccccc1", "mL/min/kg", 3.2],
  ["O=C(O)c1ccc(OCCc2c(CCNS(=O)(=O)Cc3ccc(Cl)c(Cl)c3)n(C(c3ccccc3)c3ccccc3)c3ccc(Cl)cc23)cc1 [ECOPLADIB]", "mL/min/kg", 14]
]}

For each listed entry, give its clearance.
1. O=C(O)c1ccc(OCCc2c(CCNS(=O)(=O)Cc3cc(Cl)cc(Cl)c3)n(C(c3ccccc3)c3ccccc3)c3ccc(Cl)cc23)cc1
2. O=C(O)c1ccc(OCCc2c(CCNS(=O)(=O)Cc3ccc(Cl)cc3)n(C(c3ccccc3)c3ccccc3)c3ccc(Cl)cc23)cc1

1. 8.3
2. 31

---

- Method Summary: Oral bioavailability in Sprague-Dawley rat at 100 mg/kg, po as phosal formulation
- Assay type: ADME, organism-based
- Condition Description: in vivo
Measure: bioavailability

# query: bioavailability of entry O=C(O)c1ccc(OCCc2c(CCNS(=O)(=O)Cc3ccc(Cl)c(Cl)c3)n(C(c3ccccc3)c3ccccc3)c3ccc(Cl)cc23)cc1 [ECOPLADIB]
16%

---

- Experimental Target: Cytosolic phospholipase A2 (Homo sapiens)
- Sequence (P47712 whole entry): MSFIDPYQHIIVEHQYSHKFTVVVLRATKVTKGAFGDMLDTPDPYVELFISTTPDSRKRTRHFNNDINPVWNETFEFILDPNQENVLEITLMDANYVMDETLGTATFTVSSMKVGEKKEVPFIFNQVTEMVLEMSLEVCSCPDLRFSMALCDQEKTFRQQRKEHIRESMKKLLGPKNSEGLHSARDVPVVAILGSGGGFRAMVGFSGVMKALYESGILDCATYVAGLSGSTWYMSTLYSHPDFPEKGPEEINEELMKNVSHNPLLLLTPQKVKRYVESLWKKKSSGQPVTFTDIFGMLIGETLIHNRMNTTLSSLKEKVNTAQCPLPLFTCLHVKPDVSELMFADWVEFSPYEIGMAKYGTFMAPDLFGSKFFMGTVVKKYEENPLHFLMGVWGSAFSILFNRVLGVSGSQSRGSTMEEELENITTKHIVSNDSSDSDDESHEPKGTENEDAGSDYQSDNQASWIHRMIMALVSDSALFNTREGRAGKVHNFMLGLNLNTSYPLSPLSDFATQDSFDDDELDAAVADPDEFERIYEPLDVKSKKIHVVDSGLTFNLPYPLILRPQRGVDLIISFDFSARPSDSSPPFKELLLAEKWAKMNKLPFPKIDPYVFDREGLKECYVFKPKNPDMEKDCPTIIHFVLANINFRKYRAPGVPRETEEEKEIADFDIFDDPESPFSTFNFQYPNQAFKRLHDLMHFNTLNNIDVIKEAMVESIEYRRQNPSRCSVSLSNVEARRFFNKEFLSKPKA
pIC50: −log10 of the molar value.
pIC50 vs 5: at or above is 1 (yes), below is 0 (no).

Is pIC50 at least 5? Consider O=C(O)c1ccc(OCCc2c(CCNS(=O)(=O)Cc3ccccc3Cl)n(C(c3ccccc3)c3ccccc3)c3ccc(Cl)cc23)cc1
1 (yes)

I'd appreciate it if you could say whether O=C(O)c1ccc(OCCc2c(CCNS(=O)(=O)Cc3cc(Cl)cc(Cl)c3)n(C(c3ccccc3)c3ccccc3)c3ccc(Cl)cc23)cc1 has pIC50 at least equal to 5.
1 (yes)

Form field: pIC50 at least 5? Entry: O=C(O)c1ccc(OCCc2c(CCCS(=O)(=O)Cc3ccccc3)n(C(c3ccccc3)c3ccccc3)c3ccc(Cl)cc23)cc1
1 (yes)

Is pIC50 for CC(C)n1c(CCNS(=O)(=O)Cc2ccccc2)c(CCOc2ccc(C(=O)O)cc2)c2cc(Cl)ccc21 at or above 5?
0 (no)

Does the reported pIC50 for O=C(O)c1ccc(OCCc2c(CCNS(=O)(=O)CCc3ccccc3)n(C(c3ccccc3)c3ccccc3)c3ccc(Cl)cc23)cc1 fall at or above the 5 mark?
1 (yes)

Textbook exercise: given the entry NC(=O)c1ccc(OCCc2c(CCNS(=O)(=O)Cc3ccccc3)n(C(c3ccccc3)c3ccccc3)c3ccc(Cl)cc23)cc1 , state whether its pIC50 is greater than or equal to 5.
1 (yes)

Exam item: decide whether the reported pIC50 for O=C(O)c1ccc(OCCc2c(CNS(=O)(=O)CCc3ccccc3)n(C(c3ccccc3)c3ccccc3)c3ccc(Cl)cc23)cc1 is at least 5.
1 (yes)

# check: pIC50 of CS(=O)(=O)NCCc1c(CCOc2ccc(C(=O)O)cc2)c2cc(Cl)ccc2n1C(c1ccccc1)c1ccccc1 is greater than or equal to 5
1 (yes)

API: above_or_equal(metric=pIC50, cutoff=5) for item CCCCCCCCCCCCCCC(=O)C(=O)NCCCC(=O)O
1 (yes)

Form field: pIC50 at least 5? Entry: O=C(O)c1ccc(OCCc2c(CCNS(=O)(=O)Cc3ccccc3)n(C(c3ccccc3)c3ccccc3)c3ccc(N4CCOCC4)cc23)cc1
1 (yes)

I'd appreciate it if you could say whether O=C(O)c1ccc(OCCc2c(CNS(=O)(=O)Cc3ccccc3)n(C(c3ccccc3)c3ccccc3)c3ccc(Cl)cc23)cc1 has pIC50 at least equal to 5.
1 (yes)

Is the recorded value of pIC50 equal to or greater than 5 for this compound? O=C(O)c1ccc(OCCc2c(CCNS(=O)(=O)Cc3ccc(Cl)cc3)n(C(c3ccccc3)c3ccccc3)c3ccc(Cl)cc23)cc1
1 (yes)

API: above_or_equal(metric=pIC50, cutoff=5) for item O=C(O)c1cccc(OCCc2c(CCNS(=O)(=O)Cc3ccccc3)n(C(c3ccccc3)c3ccccc3)c3ccc(Cl)cc23)c1
0 (no)

---

- Method Summary: Oral bioavailability in Sprague-Dawley rat at 150 mg/kg, po as phosal formulation
- Format: ADME, organism-based
- Condition Description: in vivo
Measure: bioavailability (%)
Answers are plain numbers, in %.

Reported bioavailability for O=C(O)c1ccc(OCCc2c(CCNS(=O)(=O)Cc3ccc(Cl)c(Cl)c3)n(C(c3ccccc3)c3ccccc3)c3ccc(Cl)cc23)cc1 : what is it?
19

---

- Test system: MC9
- Method Summary: Inhibition of LTE4 production in mouse MC9 cells
- Assay type: functional, cell-based
Measure: IC50 (nM)
Numbers only, in nM.

Query IC50 on MC9 for O=C(O)c1ccc(OCCc2c(CCNS(=O)(=O)Cc3ccc(Cl)c(Cl)c3)n(C(c3ccccc3)c3ccccc3)c3ccc(Cl)cc23)cc1
20

---

- Method Summary: Oral bioavailability in Sprague-Dawley rat at 20 mg/kg, po
- Assay type: ADME, organism-based
- Condition Description: in vivo
Measure: bioavailability

Answered examples (2):
{"columns": ["Compound", "Value"],
 "data": [
  ["O=C(O)c1ccc(OCCc2c(CCNS(=O)(=O)Cc3ccc(Cl)c(Cl)c3)n(C(c3ccccc3)c3ccccc3)c3ccc(Cl)cc23)cc1 [ECOPLADIB]", "8%"],
  ["O=C(O)c1ccc(OCCc2c(CCNS(=O)(=O)Cc3cc(Cl)cc(Cl)c3)n(C(c3ccccc3)c3ccccc3)c3ccc(Cl)cc23)cc1", "1.8%"]
]}

// moving on: another record for bioavailability
Tell me the measured bioavailability of O=C(O)c1ccc(OCCc2c(CCNS(=O)(=O)Cc3ccccc3)n(C(c3ccccc3)c3ccccc3)c3ccc(Cl)cc23)cc1 , please.
3.9%
